Test: Stability test of moisture-and-heat resistance of near-IR absorption filter
Assay type: physicochemical
Conditions: acrylic resin filter, before test
endpointName: b* value, initial period

{"columns": ["molecule", "endpointName", "observedMeasurement"],
 "data": [
  ["CC(C)CCN(CCC(C)C)c1ccc([N+](=C2C=CC(=[N+](c3ccc(N(CCC(C)C)CCC(C)C)cc3)c3ccc(N(CCC(C)C)CCC(C)C)cc3)C=C2)c2ccc(N(CCC(C)C)CCC(C)C)cc2)cc1.O=S(=O)([N-]S(=O)(=O)C(F)(F)F)C(F)(F)F.O=S(=O)([N-]S(=O)(=O)C(F)(F)F)C(F)(F)F", "b* value, initial period", 2.2],
  ["CCCCN(CCCC)c1ccc([N+](=C2C=CC(=[N+](c3ccc(N(CCCC)CCCC)cc3)c3ccc(N(CCCC)CCCC)cc3)C=C2)c2ccc(N(CCCC)CCCC)cc2)cc1.F[P-](F)(F)(F)(F)F.F[P-](F)(F)(F)(F)F [Compound No. 155, reference compound]", "b* value, initial period", 2.9],
  ["N#CCCCN(CCCC#N)c1ccc([N+](=C2C=CC(=[N+](c3ccc(N(CCCC#N)CCCC#N)cc3)c3ccc(N(CCCC#N)CCCC#N)cc3)C=C2)c2ccc(N(CCCC#N)CCCC#N)cc2)cc1.O=S(=O)([N-]S(=O)(=O)C(F)(F)F)C(F)(F)F.O=S(=O)([N-]S(=O)(=O)C(F)(F)F)C(F)(F)F", "b* value, initial period", 3.6],
  ["CCCCN(CCCC)c1ccc([N+](=C2C=CC(=[N+](c3ccc(N(CCCC)CCCC)cc3)c3ccc(N(CCCC)CCCC)cc3)C=C2)c2ccc(N(CCCC)CCCC)cc2)cc1", "b* value, initial period", 3.5]
]}

###

Test: Stability test of moisture-and-heat resistance of near-IR absorption filter
Format: physicochemical
Conditions: 14-day after minus initial, 60° C. and 95% RH
Listed here: items and their measured b* value, difference.
endpointName: b* value, difference

{"columns": ["compound", "observedMeasurement"],
 "data": [
  ["CC(C)CN(CC(C)C)c1ccc([N+](=C2C=CC(=[N+](c3ccc(N(CC(C)C)CC(C)C)cc3)c3ccc(N(CC(C)C)CC(C)C)cc3)C=C2)c2ccc(N(CC(C)C)CC(C)C)cc2)cc1 [Compound No. 2]", 1.9],
  ["CC(C)CCN(CCC(C)C)c1ccc([N+](=C2C=CC(=[N+](c3ccc(N(CCC(C)C)CCC(C)C)cc3)c3ccc(N(CCC(C)C)CCC(C)C)cc3)C=C2)c2ccc(N(CCC(C)C)CCC(C)C)cc2)cc1.O=S(=O)([N-]S(=O)(=O)C(F)(F)F)C(F)(F)F.O=S(=O)([N-]S(=O)(=O)C(F)(F)F)C(F)(F)F [Compound No. 4]", 2.1],
  ["CCCCN(CCCC)c1ccc([N+](=C2C=CC(=[N+](c3ccc(N(CCCC)CCCC)cc3)c3ccc(N(CCCC)CCCC)cc3)C=C2)c2ccc(N(CCCC)CCCC)cc2)cc1 [Compound No. 1]", 1.8],
  ["N#CCCCN(CCCC#N)c1ccc([N+](=C2C=CC(=[N+](c3ccc(N(CCCC#N)CCCC#N)cc3)c3ccc(N(CCCC#N)CCCC#N)cc3)C=C2)c2ccc(N(CCCC#N)CCCC#N)cc2)cc1.O=S(=O)([N-]S(=O)(=O)C(F)(F)F)C(F)(F)F.O=S(=O)([N-]S(=O)(=O)C(F)(F)F)C(F)(F)F [Compound No. 3]", 2.5],
  ["CCCCN(CCCC)c1ccc([N+](=C2C=CC(=[N+](c3ccc(N(CCCC)CCCC)cc3)c3ccc(N(CCCC)CCCC)cc3)C=C2)c2ccc(N(CCCC)CCCC)cc2)cc1.F[P-](F)(F)(F)(F)F.F[P-](F)(F)(F)(F)F [Compound No. 155, reference compound]", 6.1]
]}
